# subject.of.test: PI3K-δ (Homo sapiens, UniProt O00329)
# Sequence (O00329 whole entry): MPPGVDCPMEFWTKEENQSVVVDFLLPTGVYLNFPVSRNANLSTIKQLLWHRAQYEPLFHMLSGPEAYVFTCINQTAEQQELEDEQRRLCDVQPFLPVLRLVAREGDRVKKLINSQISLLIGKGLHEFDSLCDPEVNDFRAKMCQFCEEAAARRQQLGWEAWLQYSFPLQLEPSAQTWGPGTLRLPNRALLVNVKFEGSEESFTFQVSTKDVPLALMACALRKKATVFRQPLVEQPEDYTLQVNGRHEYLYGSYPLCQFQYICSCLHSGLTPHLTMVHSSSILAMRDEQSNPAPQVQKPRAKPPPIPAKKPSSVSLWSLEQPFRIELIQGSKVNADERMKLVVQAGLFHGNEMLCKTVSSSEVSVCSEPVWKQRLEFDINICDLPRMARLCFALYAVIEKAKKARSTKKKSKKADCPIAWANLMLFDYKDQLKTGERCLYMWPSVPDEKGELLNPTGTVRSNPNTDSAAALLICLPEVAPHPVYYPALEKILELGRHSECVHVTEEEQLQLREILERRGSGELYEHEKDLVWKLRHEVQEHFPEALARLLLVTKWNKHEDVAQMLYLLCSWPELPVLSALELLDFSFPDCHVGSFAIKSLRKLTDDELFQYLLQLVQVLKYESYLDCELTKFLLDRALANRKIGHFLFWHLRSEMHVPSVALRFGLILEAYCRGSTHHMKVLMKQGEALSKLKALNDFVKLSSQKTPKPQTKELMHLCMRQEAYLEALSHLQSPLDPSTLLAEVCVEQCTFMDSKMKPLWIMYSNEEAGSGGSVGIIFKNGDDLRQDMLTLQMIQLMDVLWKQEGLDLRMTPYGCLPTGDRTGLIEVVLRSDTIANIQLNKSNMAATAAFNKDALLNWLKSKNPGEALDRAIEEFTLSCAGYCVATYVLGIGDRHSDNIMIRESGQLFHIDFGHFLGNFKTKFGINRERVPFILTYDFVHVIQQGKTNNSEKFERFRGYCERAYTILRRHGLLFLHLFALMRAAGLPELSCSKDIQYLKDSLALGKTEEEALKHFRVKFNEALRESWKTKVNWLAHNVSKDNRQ
# Sequence (P27986 whole entry partner): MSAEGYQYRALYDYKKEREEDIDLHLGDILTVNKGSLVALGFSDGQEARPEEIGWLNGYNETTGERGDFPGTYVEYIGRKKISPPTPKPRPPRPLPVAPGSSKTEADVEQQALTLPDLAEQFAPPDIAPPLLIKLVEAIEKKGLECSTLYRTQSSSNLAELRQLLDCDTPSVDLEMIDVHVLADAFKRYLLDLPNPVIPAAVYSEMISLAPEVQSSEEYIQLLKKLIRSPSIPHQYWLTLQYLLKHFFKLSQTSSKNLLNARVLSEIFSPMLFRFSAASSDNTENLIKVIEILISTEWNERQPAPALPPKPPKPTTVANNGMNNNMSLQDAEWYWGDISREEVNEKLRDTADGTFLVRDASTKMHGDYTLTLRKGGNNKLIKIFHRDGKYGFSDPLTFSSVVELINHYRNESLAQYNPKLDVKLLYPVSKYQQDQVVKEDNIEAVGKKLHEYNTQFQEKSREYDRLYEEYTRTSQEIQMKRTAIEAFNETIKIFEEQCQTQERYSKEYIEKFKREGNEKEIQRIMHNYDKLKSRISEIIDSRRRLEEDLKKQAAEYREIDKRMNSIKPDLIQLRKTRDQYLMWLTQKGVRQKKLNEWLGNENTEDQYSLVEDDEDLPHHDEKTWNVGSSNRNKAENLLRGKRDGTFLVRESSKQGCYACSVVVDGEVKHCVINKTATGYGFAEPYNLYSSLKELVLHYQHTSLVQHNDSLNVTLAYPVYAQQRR
# protocol.summary: PI3K biochemical assay
# run.parameters: read-out: IC50 (nM) PI3K-δ; ADP-Glo; ATP 10 μM
value.kind: IC50 (nM)

> print(dat)
                            molecule.smiles  observed.result
1  COc1ccc(-c2cc(C(=O)NN=C(/C=C\c3ccc(Cl)cc3)c3ccc(N)cc3)c3ccccc3n2)cc1              438

* * *

# subject.of.test: PI3K-α (Homo sapiens)
# Sequence (P42336 whole entry): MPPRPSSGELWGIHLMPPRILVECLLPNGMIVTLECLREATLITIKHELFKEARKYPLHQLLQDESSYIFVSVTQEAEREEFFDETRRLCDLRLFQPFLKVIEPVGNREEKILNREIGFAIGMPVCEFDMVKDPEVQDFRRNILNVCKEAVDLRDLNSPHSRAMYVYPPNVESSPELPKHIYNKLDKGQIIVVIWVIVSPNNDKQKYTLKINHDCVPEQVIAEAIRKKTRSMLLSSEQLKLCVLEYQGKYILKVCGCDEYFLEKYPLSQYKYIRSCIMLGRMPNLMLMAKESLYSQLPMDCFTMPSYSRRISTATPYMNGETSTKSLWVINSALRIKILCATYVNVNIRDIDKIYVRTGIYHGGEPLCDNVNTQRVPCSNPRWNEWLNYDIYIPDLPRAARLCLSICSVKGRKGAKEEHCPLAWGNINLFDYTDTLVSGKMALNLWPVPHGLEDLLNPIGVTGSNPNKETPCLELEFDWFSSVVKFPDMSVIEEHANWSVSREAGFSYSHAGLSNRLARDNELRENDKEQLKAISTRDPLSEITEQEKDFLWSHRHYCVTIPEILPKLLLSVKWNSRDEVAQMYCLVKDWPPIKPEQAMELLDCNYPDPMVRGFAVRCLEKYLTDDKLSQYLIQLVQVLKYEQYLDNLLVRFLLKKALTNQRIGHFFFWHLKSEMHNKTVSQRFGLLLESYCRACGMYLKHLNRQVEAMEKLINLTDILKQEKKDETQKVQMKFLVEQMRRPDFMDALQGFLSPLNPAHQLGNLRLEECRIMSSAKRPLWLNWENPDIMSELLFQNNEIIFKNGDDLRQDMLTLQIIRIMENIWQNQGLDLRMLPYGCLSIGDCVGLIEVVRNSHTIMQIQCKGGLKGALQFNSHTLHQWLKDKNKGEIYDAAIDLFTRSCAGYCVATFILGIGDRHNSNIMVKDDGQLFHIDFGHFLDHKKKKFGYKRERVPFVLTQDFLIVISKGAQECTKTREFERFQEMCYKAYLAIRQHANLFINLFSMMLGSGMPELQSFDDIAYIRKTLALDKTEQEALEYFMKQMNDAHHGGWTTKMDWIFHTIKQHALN
# Sequence (P27986 whole entry partner): as the sequence (P27986 whole entry partner) above
# protocol.summary: PI3K biochemical assay
# run.parameters: read-out: IC50 (nM) PI3K-α; ADP-Glo; ATP 10 μM
value.kind: IC50

> print(dat)
                            molecule.smiles  value.kind  observed.result
1  COc1ccc(-c2cc(C(=O)NN=C(/C=C\c3ccc(Cl)cc3)c3ccc(N)cc3)c3ccccc3n2)cc1        IC50           248 nM

Data provenance: paper PMC6931042
